Assign MIC to each entry below.
Test system: Staphylococcus aureus
Assay: Antibacterial activity against Methicillin-sensitive Staphylococcus aureus ATCC 29213 assessed as bacterial growth inhibition incubated for 20 to 24 hrs by microbroth serial dilution assay
Write the figure, then the unit, nothing else.

Which MIC is listed for C=C[C@]1(C)C[C@@H](OC(=O)CSc2nc(N)nc3c2ncn3C(=O)NCc2ccc(OC)cc2)[C@@]2(C)C3C(=O)CC[C@@]3(CC[C@H]2C)[C@@H](C)[C@@H]1O (stereo partly drawn) ?
0.0625 µg/mL

And the next one, C=C[C@]1(C)C[C@@H](OC(=O)CSc2nc(NC(=O)CN3CCOCC3)nc3[nH]cnc23)[C@@]2(C)C3C(=O)CC[C@@]3(CC[C@H]2C)[C@@H](C)[C@@H]1O (stereo partly drawn) ?
1 µg/mL

And the next one, C=C[C@]1(C)C[C@@H](OC(=O)CSc2nc(N)nc3c2ncn3C(=O)Nc2ccccc2Cl)[C@@]2(C)C3C(=O)CC[C@@]3(CC[C@H]2C)[C@@H](C)[C@@H]1O (stereo partly drawn) ?
0.25 µg/mL

----------
Assign MIC to each entry below.
Tested on: Staphylococcus aureus
Test: Antibacterial activity against Methicillin-sensitive Staphylococcus aureus ATCC 29213 assessed as bacterial growth inhibition incubated for 20 to 24 hrs by microbroth serial dilution assay
Form entry: value (mg/L) — number only.

Form field: MIC recorded for C=C[C@]1(C)C[C@@H](OC(=O)CSc2nc(N)nc3c2ncn3C(=O)Nc2ccc(C(C)=O)cc2)[C@@]2(C)C3C(=O)CC[C@@]3(CC[C@H]2C)[C@@H](C)[C@@H]1O (stereo partly drawn) with Staphylococcus aureus (enter value)
0.125

And the next one, C=C[C@]1(C)C[C@@H](OC(=O)CSc2nc(N)nc3c2ncn3C(=O)NCc2cccc(OC)c2)[C@@]2(C)C3C(=O)CC[C@@]3(CC[C@H]2C)[C@@H](C)[C@@H]1O (stereo partly drawn) ?
0.0625

And the next one, C=C[C@]1(C)C[C@@H](OC(=O)CSc2nc(N)nc3c2ncn3C(=O)OCC)[C@@]2(C)C3C(=O)CC[C@@]3(CC[C@H]2C)[C@@H](C)[C@@H]1O (stereo partly drawn) ?
0.125

----------
System: Staphylococcus aureus
Experiment: Antibacterial activity against Staphylococcus aureus ATCC 25923 assessed as bacterial growth inhibition incubated for 20 to 24 hrs by microbroth serial dilution assay
Assay type: functional
Conditions: time 20-24 hrs
Assign MIC to each entry below.
Write the figure, then the unit, nothing else.

Which MIC is listed for C=C[C@]1(C)C[C@@H](OC(=O)CSc2nc(N)nc3c2ncn3C(=O)CCc2ccccc2)[C@@]2(C)C3C(=O)CC[C@@]3(CC[C@H]2C)[C@@H](C)[C@@H]1O (stereo not given in full) ?
0.25 µg/mL

And the next one, C=C[C@]1(C)C[C@@H](OC(=O)CSc2nc(NC(=O)CN3CCN(C)CC3)nc3[nH]cnc23)[C@@]2(C)C3C(=O)CC[C@@]3(CC[C@H]2C)[C@@H](C)[C@@H]1O (stereo not given in full) ?
16 µg/mL

And the next one, C=C[C@]1(C)C[C@@H](OC(=O)CSc2nc(N)nc3c2ncn3C(=O)c2ccc([N+](=O)[O-])cc2)[C@@]2(C)C3C(=O)CC[C@@]3(CC[C@H]2C)[C@@H](C)[C@@H]1O (stereo not given in full) ?
0.125 µg/mL

And the next one, C=C[C@]1(C)C[C@@H](OC(=O)CSc2nc(N)nc3c2ncn3C(=O)Nc2cccc(C(F)(F)F)c2)[C@@]2(C)C3C(=O)CC[C@@]3(CC[C@H]2C)[C@@H](C)[C@@H]1O (stereo not given in full) ?
0.25 µg/mL

And the next one, C=C[C@]1(C)C[C@@H](OC(=O)CSc2nc(N)nc3c2ncn3C(=O)NCc2ccccc2OC)[C@@]2(C)C3C(=O)CC[C@@]3(CC[C@H]2C)[C@@H](C)[C@@H]1O (stereo not given in full) ?
0.125 µg/mL

----------
Test system: Staphylococcus epidermidis
Assay: Antibacterial activity against Methicillin-resistant Staphylococcus epidermidis ATCC 51625 assessed as bacterial growth inhibition incubated for 20 to 24 hrs by microbroth serial dilution assay
Format: functional
Settings: time 20-24 hrs
property: MIC (µg/mL)
Form entry: value (µg/mL) — number only.

Which MIC is listed for C=C[C@]1(C)C[C@@H](OC(=O)CSc2nc(N)nc3c2ncn3C(=O)Nc2ccccc2)[C@@]2(C)C3C(=O)CC[C@@]3(CC[C@H]2C)[C@@H](C)[C@@H]1O (stereo partly drawn) ?
0.125

And the next one, C=C[C@]1(C)C[C@@H](OC(=O)CSc2nc(N)nc3c2ncn3C(=O)NCc2ccc(OC)cc2)[C@@]2(C)C3C(=O)CC[C@@]3(CC[C@H]2C)[C@@H](C)[C@@H]1O (stereo partly drawn) ?
0.0312

And the next one, C=C[C@]1(C)C[C@@H](OC(=O)CSc2nc(N)nc3c2ncn3C(=O)NCc2cccc(OC)c2)[C@@]2(C)C3C(=O)CC[C@@]3(CC[C@H]2C)[C@@H](C)[C@@H]1O (stereo partly drawn) ?
0.0625

----------
Tested on: Staphylococcus epidermidis
Assay: Antibacterial activity against Methicillin-resistant Staphylococcus epidermidis ATCC 51625 assessed as bacterial growth inhibition incubated for 20 to 24 hrs by microbroth serial dilution assay
Type: functional
Settings: time 20-24 hrs
property: MIC (µg/mL)
Form entry: value (µg/mL) — number only.

Which MIC is listed for C=C[C@]1(C)C[C@@H](OC(=O)CSCCN(CC)CC)[C@]2(C)[C@H](C)CC[C@]3(CCC(=O)[C@H]32)[C@@H](C)[C@@H]1O ?
1

And the next one, C=C[C@]1(C)C[C@@H](OC(=O)CSc2nc(NC(=O)CN3CCCCC3)nc3[nH]cnc23)[C@@]2(C)C3C(=O)CC[C@@]3(CC[C@H]2C)[C@@H](C)[C@@H]1O (some centres not stated) ?
0.5

And the next one, C=C[C@]1(C)C[C@@H](OC(=O)CSc2nc(N)nc3c2ncn3C(=O)NCc2ccc([N+](=O)[O-])cc2)[C@@]2(C)C3C(=O)CC[C@@]3(CC[C@H]2C)[C@@H](C)[C@@H]1O (some centres not stated) ?
0.0625

And the next one, C=C[C@]1(C)C[C@@H](OC(=O)CSc2nc(NC(=O)CN3CCNCC3)nc3[nH]cnc23)[C@@]2(C)C3C(=O)CC[C@@]3(CC[C@H]2C)[C@@H](C)[C@@H]1O (some centres not stated) ?
16

And the next one, C=C[C@]1(C)C[C@@H](OC(=O)CSc2nc(N)nc3c2ncn3C(=O)Nc2ccccc2Cl)[C@@]2(C)C3C(=O)CC[C@@]3(CC[C@H]2C)[C@@H](C)[C@@H]1O (some centres not stated) ?
0.0625

And the next one, C=C[C@]1(C)C[C@@H](OC(=O)CSc2nc(N)nc3c2ncn3C(=O)Nc2ccccc2OC)[C@@]2(C)C3C(=O)CC[C@@]3(CC[C@H]2C)[C@@H](C)[C@@H]1O (some centres not stated) ?
0.125

And the next one, C=C[C@]1(C)C[C@@H](OC(=O)CSc2nc(NC(=O)CCl)nc3[nH]cnc23)[C@@]2(C)C3C(=O)CC[C@@]3(CC[C@H]2C)[C@@H](C)[C@@H]1O (some centres not stated) ?
0.25

----------
Test system: Staphylococcus aureus
Assay: Antibacterial activity against Methicillin-sensitive Staphylococcus aureus ATCC 29213 assessed as bacterial growth inhibition incubated for 20 to 24 hrs by microbroth serial dilution assay
property: log10 of MIC (log10 of the value in µg/mL)
Plainly stated, the numbers are log10 of MIC given in µg/mL.

Which log10 of MIC is listed for C=C[C@]1(C)C[C@@H](OC(=O)CSCCN(CC)CC)[C@]2(C)[C@H](C)CC[C@]3(CCC(=O)[C@H]32)[C@@H](C)[C@@H]1O ?
0.00

And the next one, C=C[C@]1(C)C[C@@H](OC(=O)CSc2nc(NC(=O)CCl)nc3[nH]cnc23)[C@@]2(C)C3C(=O)CC[C@@]3(CC[C@H]2C)[C@@H](C)[C@@H]1O (some centres not stated) ?
-0.30

And the next one, C=C[C@]1(C)C[C@@H](OC(=O)CSc2nc(N)nc3c2ncn3C(=O)c2ccc([N+](=O)[O-])cc2)[C@@]2(C)C3C(=O)CC[C@@]3(CC[C@H]2C)[C@@H](C)[C@@H]1O (some centres not stated) ?
-1.20

And the next one, C=C[C@]1(C)C[C@@H](OC(=O)CSc2nc(NC(=O)CN3CCC(O)CC3)nc3[nH]cnc23)[C@@]2(C)C3C(=O)CC[C@@]3(CC[C@H]2C)[C@@H](C)[C@@H]1O (some centres not stated) ?
1.20

And the next one, C=C[C@]1(C)C[C@@H](OC(=O)CSc2nc(N)nc3c2ncn3C(=O)c2ccc(OC)cc2)[C@@]2(C)C3C(=O)CC[C@@]3(CC[C@H]2C)[C@@H](C)[C@@H]1O (some centres not stated) ?
-0.30

And the next one, C=C[C@]1(C)C[C@@H](OC(=O)CSc2nc(N)nc3c2ncn3C(=O)Nc2cccc(C(F)(F)F)c2)[C@@]2(C)C3C(=O)CC[C@@]3(CC[C@H]2C)[C@@H](C)[C@@H]1O (some centres not stated) ?
-0.90

And the next one, C=C[C@]1(C)C[C@@H](OC(=O)CSc2nc(NC(=O)CN3CCNCC3)nc3[nH]cnc23)[C@@]2(C)C3C(=O)CC[C@@]3(CC[C@H]2C)[C@@H](C)[C@@H]1O (some centres not stated) ?
1.51

And the next one, C=C[C@]1(C)C[C@@H](OC(=O)CSc2nc(NC(=O)CN3CCN(C)CC3)nc3[nH]cnc23)[C@@]2(C)C3C(=O)CC[C@@]3(CC[C@H]2C)[C@@H](C)[C@@H]1O (some centres not stated) ?
0.90

And the next one, C=C[C@]1(C)C[C@@H](OC(=O)CSC(C)(C)CNC(=O)[C@H](N)C(C)C)[C@]2(C)[C@H](C)CC[C@]3(CCC(=O)[C@H]32)[C@@H](C)[C@@H]1O ?
-0.90

And the next one, C=C[C@]1(C)C[C@@H](OC(=O)CSc2nc(N)nc3c2ncn3C(=O)Nc2ccc(F)cc2)[C@@]2(C)C3C(=O)CC[C@@]3(CC[C@H]2C)[C@@H](C)[C@@H]1O (some centres not stated) ?
-0.60

And the next one, C=C[C@]1(C)C[C@@H](OC(=O)CSc2nc(N)nc3c2ncn3C(=O)c2ccc(C)cc2)[C@@]2(C)C3C(=O)CC[C@@]3(CC[C@H]2C)[C@@H](C)[C@@H]1O (some centres not stated) ?
-0.90

And the next one, C=C[C@]1(C)C[C@@H](OC(=O)CSc2nc(N)nc3c2ncn3C(=O)NCc2ccccc2OC)[C@@]2(C)C3C(=O)CC[C@@]3(CC[C@H]2C)[C@@H](C)[C@@H]1O (some centres not stated) ?
-1.20
